assay: yeast display, Sf9 membrane polyspecificity reagent, FACS + sequencing; frameworks hold sequencing errors
MEASURED_METRIC: polyreactivity (PSR sort gate)

Recorded polyreactivity (PSR sort gate), per entry:
QVQLVESGGGLVQAGGSLRLSCAASGSIFRSYAMGWYRQAPGKERELVAAITFSGGRTYYADSVKGRFTISRDNAKNTVYLQMNSLKPEDTGVYYCNARHRNLAEYDYWGQGTQVTVSS low polyreactivity
QVQLVESGGGLVQAGGSLRLSCAASGRRFVKYAMGWYRQAPGKERELVAAITKSGSSTYYSDSVKGRFTISRDNAKNTVYLQMNSLKPEDTAVYYCAALTISRSRTGYYWGQGTQVTVSS low polyreactivity
QVQLVESGGGLVQAGGSLRLICSASGLISRINAMGWYRQAPGKERELVAAISSGGSTNYADSVKGRFTISRDNAKNTVYLQMNSLKPEDTAVYYCAAEVFRVAWYDYWGQGTQVTVSS high polyreactivity
QVQLVESGGGLVQAGGSLRLSCAASGFILQYNAMGWYRQAPGKERELVAAITRSGVSTYYADSVKGRFTISRDNAKNTVYLQMNSLKPEDTAVYYCAATGGDRYEAYYYWGQGTQVTVSS low polyreactivity
QVQLVESGGGLVQAGGSLRLSCAASGFIFSYYAMGWYRQAPGKERELVAAISGSGGSTYYADSVKGRFTISRDNAKNTVYLQMNSLKPEDTAVYYCAAVSSYSRVYYWGQGTQVTVSS high polyreactivity
QVQLVETGGGLVQAGGSLRLSCAASGFTFKLYAMGWYRQAPGKERVLVAAISSSGGRTYYADSVKGRFTISRDNAKNTVYLQMNSLKPEDTAVYYCNAVRTVNDYHYDYWGQGTQVTVSS high polyreactivity
QVQLVESGGGVVQAGGSLRLSCAASGSIFKSYAMGWYRQAPGKERELVAAITWSGGSTHYADSVKGRFTISRDNAKNTVYLQMNSLKPEDTAVYYCAADGYTGQAELDSWGQGTQVTVSS low polyreactivity
QVQLVESGGGLVQAGGSLRLSCAASGRTFWYYAMGWYRQAPGKERELVAAISTTGSSTYYADSVKGRFTISRDNAKNTVYLQMNSLKPEDTAVYYCAADSGAQYKYLWGYDYWGQGTQVTVSS low polyreactivity

Would you mind listing polyreactivity (PSR sort gate) for each of the following sequences?
1. QVQLVESGGGLVQAGGSLRLSCADSGSIFWGYAMGWYRQAPGKERELVAVISRGGSTYYADSVKGRFTISRDNAKNTVYLQMNSLKPEDTAVYYCAASSSWFYSPEYDYWGQGTQVSVSS
2. QVQLVESGGGLVQAGGSLRLSCAASGSIFPTNTMGWYRQAPGKERELVASINSDGSTNYADSVKGSFTISRDNAKNTVYLQMNSLKPEDTAVYYWAADTQGSEYEFWGQGTQVTVSS
3. QVQLVESGGGLVQAGGSLRLSCAASGIIFAYYAMGWYRQAPGKERELVASISSGGTTKYADSVKGRFTISRDNAKNTVYLQMNSLKPEDTAVYYCAAEHRWRSWDMDYWGQGTQVTVSS
4. QVQLVESGGGLVQAGGSLRLSCAASGFTFPYYAMGWYRQAPGKERELVAAISRSGTSTNYADSVKGRFTISRDNAKNTVYLQMNSLKPEDTAVYYCATARRQGKVIQYYYWGQGTQVTVSS

Output:
1: low polyreactivity; 2: low polyreactivity; 3: low polyreactivity; 4: high polyreactivity

Would you mind listing polyreactivity (PSR sort gate) for each of the following sequences?
1. QVQLVESGGGLVQAGGSLSLICADTGLTFRVYAMGWYRQAPGKERELVAAISSRGGSTYYADSVKGRFTISRDNAKYTVLLQMNSLKPEDTAVYDCYARGQGGYWGQGTQVTVSS
2. QVQLVESGGGLVQAGGSLRLSCAASGRIFYQNAMGWYRQAPGKERELVADISSGGSTYYADSVKGRFTISRDNAKNTVYLQMNSLKPEDTAVYYCAAEGQLFDLYDYWGQGTQVTVSS
3. QVQLIESGGGLVQAGGSLRLSCAASGSIFYINTMGWYRQAPGKERELVATIRTSGGSTYADSVKGRFTISRDNAKNTVYLQMNSLKPEDTAVYYCAVRRYRSSSYGYYSWGQGTQVTVSS
4. QDQLVESGGGLVQAGGSLRLSCAASGRIFDRYAMGWYRQAPGKERELVAAISGRTGSTYYADSVKGRFTISRDNAKNTVYLQMNSLKPEDTAVYYCAKRSYWDGVRYDYWGQGTQVTVSS
5. QVQLVESAGGLVQAGGILRLSCAASGITIYRYAMGWYRQAPGKERELVADISSGGGTTYYADSVKGRFTISRYNAKNTVYLQMNSQKPEDTAVYYCAADYGFRYPLYDYWGQGTQVTVSS
6. QDQHVESGGGLVQAGGSLRLSCDASGTTIYDYVMGWYRKAPGKERELVAAITRGGSTNYADSVKGRFTISRDNAKNTVYLQMNRLKPEDTAVYYCAARPCIWARAGYYWGQGTQVTVSS
7. QVQLVESRGGLVQAGGSLRLSCAASGSIFLSYAMGWYRQAPGKERELVADISRSGGSTYYADSVKGRFTISRDNAKNTVYLQMNSLKPEDTAVYYCAVYIAVYEGDYWGQGSQVTVSS

Output:
high polyreactivity
low polyreactivity
high polyreactivity
high polyreactivity
low polyreactivity
high polyreactivity
low polyreactivity

Would you mind listing polyreactivity (PSR sort gate) for each of the following sequences?
1. QVQLVESGGGLVQAGGSLRLSCAASGSTVYYNAMGWYRQAPGKEREFVAAINCRGGSTYYADSVKGRFTISRDNSKNTVYLQMNSLKPEDTAVYYCAAEEPSTYYYVRSGYDYHFWEMYSWGQGTQVTVSS
2. QVQLVESGGGLVQAGGSLRLSCAASGRIFPGYDMGWYRQAPGKERELVAAISASGGSTYYADSVKGRFTISRDNAKNTVYLQMNSLKPEDTAVYYCNAVYRLIRFDYWGQGTQVTVSS

Output:
1. low polyreactivity
2. high polyreactivity
